System: MS2 coat protein
assay_overview: apparent KD of MS2 coat protein; higher = weaker reporter binding
experimental_conditions: Eterna round: R107; input ligand: theophylline 20 uM
Classification field: enter Criterion met for apparent KD of MS2 coat protein values not below 40 nM, Criterion not met for values below it.

// query Confirm if apparent KD of MS2 coat protein reported for the sequence GAACAUAAGGAUACUAUAAUAAGUACAGAAGGAGCGAGCGGAAGCUCAGGUAGGUCGCUGGGUAACAUGAGGAUCACCCAUGUUG [SSArg A #14 Road to perfection1] is 40 nM or above.
// result Criterion not met

// query hey, is apparent KD of MS2 coat protein for this one >= 40 nM? ACGAUACGACAUGAGGAUCACCCAUGUGAUACCAGCGUGGAAACACGCCCUUGGCAGCACAAAUACUCCAAUAACGUAUCGAAAA [MAT - Exclusion Theophlline A - Mod of Eli - D8]
// result Criterion met

// query # bool: apparent KD of MS2 coat protein of UGGCAAGAGGGAAGGAGCGUCAGCUGAGUCACAUGAGGAUCACCCAUGUAGCACAUGGUGUGACAGGUAGGUCGCCCUCUGCCGU [SS-ArgB11] >= 40 nM
// result Criterion not met

// query Dear colleague, could you confirm whether AAAUAAAUAACUGAUACCAGUGGACUGACAUGAGGAUCACCCAUGUUGGGUUUUGUUGUCCACCCUUGGCAGCGGGCAUAUAAAA [#25 Exclusion-TheophyllineB] has apparent KD of MS2 coat protein at or above 40 nM?
// result Criterion not met

// query Record UUGUACGAAACUGAUACCAGCCAGCAAUGCCACCAAGAGCACAUGAGGAUCACCCAUGUUGGCCCUUGGCAGCAGGACAAUAAGC [theeternabot_exclusion_MS2_Theo_B_3] ; criterion: apparent KD of MS2 coat protein no lower than 40 nM. Met?
// result Criterion not met

// query Test whether the sequence AAAUAAAUACAUGAGGAUCACCCAUGUGAAGGAGCGGCCGUUAGGCCAGGUAGGUCGCACAUGAAAGGGAAGCGAAAGAAAUAAU [MAT - Exclusion Arginine A - Mod of Eli - D7] records apparent KD of MS2 coat protein of 40 nM or higher.
// result Criterion not met

// query State whether the measured apparent KD of MS2 coat protein reaches 40 nM, counting equality as reaching it, for AUAAAUAAAACCGAUACCAGCCUUAUACAUGAGGAUCACCCAUGUUAUGCUUCCUUUUUUGGCCCUUGGCAGCGGAAAUGGGUAA [AstrosSSTheB#1]
// result Criterion met

// query Please indicate if the recorded apparent KD of MS2 coat protein for AGUCUUAAUGGAAGGAGCGCAGUCAUAACAUGAGGAUCACCCAUGUCGAGGUGAGGGUCAUUGCAGGUAGGUCGCCAUACUAGGA [Same State - Arginine B (Freestyle 2)] meets or exceeds 40 nM.
// result Criterion met

// query Is reported apparent KD of MS2 coat protein greater than or equal to 40 nM here: UCAUAAGUACCGGUCCUCAGAUCCUCAUGACGAGGACCGGUACGGCCGCCACUCGAAACAUGAGGAUCACCCAUGUAAUAACAUU [Brourdmod23]
// result Criterion not met

// query Does the reported apparent KD of MS2 coat protein for AAUUGAAACAGAGGUAUAUACGGACAUUACCGAGGACCGGUACGGCCGCCACUCGACCUAAAACAUGAGGAUCACCCAUGUAGCA [theeternabot_exclusion_MS2_Trp_A_20] fall at or above the 40 nM mark?
// result Criterion not met
